Data origin, for the record: ChEMBL document CHEMBL4138138

- Test description: Half life in mouse liver microsomes
- Format: ADME, microsome
Result type: half-life

Examples with answers:
INSERT INTO measurements (compound, assay_result) VALUES
  ('CCOC(=O)CSc1nc(N)c2c3c(sc2n1)CC(C(C)(C)C)CC3 (stereo not given)', '< 1 min'),
  ('Cc1nc(CSc2nc(N)c3c4c(sc3n2)CC(C(C)(C)C)CC4)sc1C (stereo not given)', '21.7 min'),
  ('CC(C)(C)C1CCc2c(sc3nc(SCc4ccc(C(=O)O)cc4[N+](=O)[O-])nc(N)c23)C1 (stereo not given)', '120 min'),
  ('CC(C)(C)C1CCc2c(sc3nc(SCc4cccc([N+](=O)[O-])c4)nc(N)c23)C1 (stereo not given)', '47.5 min'),
  ('CC(C)(C)C1CCc2c(sc3nc(SCc4ccnn4C4CCCCO4)nc(N)c23)C1 (stereo not given)', '60.3 min'),
  ('Cn1nccc1CSc1nc(N)c2c3c(sc2n1)CC(C(C)(C)C)CC3 (stereo not given)', '60.8 min'),
  ('Cc1cc(CSc2nc(N)c3c4c(sc3n2)CC(C(C)(C)C)CC4)no1 (stereo not given)', '19 min'),
  ('CC(C)(C)C1CCc2c(sc3nc(SCc4ccc([N+](=O)[O-])cc4)nc(N)c23)C1 (stereo not given)', '34.3 min');

Ask: I'd like to know its half-life. The compound in question is Cc1ccc(CSc2nc(N)c3c4c(sc3n2)CC(C(C)(C)C)CC4)s1 (stereo not given)
Reply: 31.8 min

Ask: I'd like to know its half-life. The compound in question is CC(C)(C)C1CCc2c(sc3nc(SCc4ccc5c(c4)OCO5)nc(N)c23)C1 (stereo not given)
Reply: 64.2 min
